The reported measurements were obtained from PubChem BioAssay (NCI).

ASSAY_COMMENT: NCI Yeast Anticancer Drug Screen. Data for the rad50 strain (AID 155);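 also: 0% = growth of vehicle-only cultures of the same strain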
PARTICULARS: S. cerevisiae rad50 strain growth inhibition; at 50.0 µM; stronger effect = higher value
Compounds without any hit were thinned out: in the full panel of roughly 79,000, 15% have a hit.
MEASURED_PARAMETER: growth inhibition (%)
Write down the numeric answer in % and omit the unit.

COMPOUND: CCC1C(=O)NC(=O)N(c2ccccc2)C1=O (configuration not stated)
READING_UNIT: %
growth inhibition: 13.7
//
COMPOUND: CC[C@H]1CN2CCc3cc(OC)c(OC)cc3[C@@H]2C[C@@H]1C[C@H]1NCCc2c1[nH]c1ccc(O)cc21
READING_UNIT: %
growth inhibition: -16.8
//
COMPOUND: CCC1CCC2CCCC(C)N12 (configuration not stated)
READING_UNIT: %
growth inhibition: 9.05
//
COMPOUND: C[CH2][Sn](/[CH]=C\CO)([CH2]C)[CH2]C
READING_UNIT: %
growth inhibition: 63
//
COMPOUND: CCCC(=O)[O-].N.N.N.N.N.[Co+3].[O-][Cl+3]([O-])([O-])[O-]
READING_UNIT: %
growth inhibition: -23.8
//
COMPOUND: CC(=O)OC1CC2(O)C(CCC3(C)C(c4ccc(=O)oc4)CCC32O)C2(C)CCC(O)C=C12 (configuration not stated)
READING_UNIT: %
growth inhibition: 7.25

Challenge: Sample CC(C)N([PH2+]N(C(C)C)C(C)C)C(C)C.[C-]#[O+].[C-]#[O+].[C-]#[O+].[C-]#[O+].[C-]#[O+].[Mo] — what was its growth inhibition?
Response given: 9.4

Challenge: Sample CCCCCCCCCCC(O)[C@H]1CCC(C2CC[C@H]([C@H](O)CCCCCCCCCCC(O)CC3=CC(C)OC3=O)O2)O1 (some centres not stated) — what was its growth inhibition?
Response given: 2.15

Challenge: Sample CCOC(=O)C1C2(C)NC(=O)C1(Cc1ccccc1)c1cc(C)c(C)cc1O2 (configuration not stated) — what was its growth inhibition?
Response given: -0.75

Challenge: Sample CNCCc1cccs1 — what was its growth inhibition?
Response given: -27.6

Challenge: Sample CC(C)OP(=O)(OC(C)C)C(C)(C)O — what was its growth inhibition?
Response given: 2.8

Challenge: Sample NC(N)=NC(N)=Nc1ccc(Cl)cc1 — what was its growth inhibition?
Response given: 0.9

Challenge: Sample O=[N+]([O-])c1cc(S(=O)(=O)F)cc(Cl)c1O — what was its growth inhibition?
Response given: -10.2
